tested on: U-251; test: NCI tumour cell line growth inhibition, 48 h
The source made the active and inactive calls. No stated cut-off is given here; in the data, active = GI50 up to about 1.1 µM and inactive = higher.

molecule	target.or.system	GI50
CCOC(=O)c1cnc2oc3ccc(O)cc3c2c1-c1ccccc1	U-251	44.8 µM (inactive)
CC(=O)c1cccc(NC(=O)C(=O)C(C(=O)NN)c2ccccc2)c1 (stereo not drawn)	U-251	> 100 µM (inactive)
COc1ccc(-n2c(CCCC(=O)O)nc3c2C(=O)c2ccccc2C3=O)cc1	U-251	> 100 µM (inactive)

###

test system: MDA-MB-435; test: NCI tumour cell line growth inhibition, 48 h
Activity calls are given as the source filed them. No stated cut-off is given here; in the data, active = GI50 up to about 1.1 µM and inactive = higher. Non-standard residues stand in square brackets, D forms with d. Residues, ends and D or L forms follow the SMILES beside them. *: point of attachment. Bn2Val = CC(C)[C@@H](C(=O)*)N(Cc1ccccc1)Cc1ccccc1; NMeV = CN[C@H](C(=O)O)C(C)C; X32 = COc1ccc(CN*)c(OC)c1; dNMeA = CN[C@H](C)C(=O)O
Outcomes: active, inactive

compound	target.or.system	class
C=CCOC(=O)N1c2ccc(O)cc2[C@@]23O[C@@]24[C@@H]1C#C/C=C\C#C[C@]3(O)C(=O)C[C@@H]4C	MDA-MB-435	inactive
CC(=O)O[C@H]1CC[C@]2(C=O)[C@H]3CC[C@]4(C)[C@@H](C5=CC(=O)OC5)CC[C@]4(O)[C@@H]3CC[C@]2(O)C1 [STROPHANTHIDIN ACETATE]	MDA-MB-435	active
C[C@H]1C2Cc3cc(O)ccc3[C@@]1(C)CCN2CCc1ccc(N)cc1	MDA-MB-435	inactive
COc1ccc(N[S+]([O-])CCCc2ccccc2)cc1 (stereo not drawn)	MDA-MB-435	inactive
CC(C)(C)OC(=O)N1[C@@H]2Cc3ccc(N)cc3[C@@]1(C)c1ccccc12	MDA-MB-435	inactive
ClC(Cl)=C1C(=C(Cl)Cl)C(Cl)(Cl)C1(Cl)Cl	MDA-MB-435	inactive
COC1=CC(=O)C2=C(C[C@@]3(C)C(=C2)C(CO)=CC[C@H]3O)C1=O	MDA-MB-435	inactive
CCOc1ccc2nc3nc(O)nc(C)c3c(NCCCN(CC)CC)c2c1	MDA-MB-435	inactive
CCN=C=NCCCN(C)C	MDA-MB-435	inactive
COc1ccc(CNC(=O)[C@@H]2CCCN2C(=O)[C@@H](C)N(C)C(=O)[C@H](C(C)C)N(C)C(=O)[C@@H](NC(=O)[C@H](C(C)C)N(Cc2ccccc2)Cc2ccccc2)C(C)C)c(OC)c1 (Bn2Val-V[NMeV][dNMeA]P-X32)	MDA-MB-435	inactive
COC(=O)c1cc(-c2ccc3ccccc3c2)nc(O)c1C#N	MDA-MB-435	inactive
Cc1ccc(-n2cnc3c(N/N=C4\SCC(=O)N4c4ccccc4)ncnc32)cc1	MDA-MB-435	inactive
COc1ccc(C2C=C(c3ccc4c(c3)OCO4)Oc3c2c(=O)oc2ccccc32)cc1OC (stereo not drawn)	MDA-MB-435	active
CC(=O)OCC1OC(n2c(-c3ccc(C)cc3)cc(-c3ccccc3)c(C#N)c2=S)C(OC(C)=O)C(OC(C)=O)C1OC(C)=O (stereo not drawn)	MDA-MB-435	inactive
CC(C)(C)OC(=O)NC1CCCCC1NC(=O)C(=O)NC1CCCCC1NC(=O)OC(C)(C)C (stereo not drawn)	MDA-MB-435	inactive
O=C(Nc1nnc(-c2ccccc2)o1)C(SC(=S)N1CCOCC1)c1ccccc1 (stereo not drawn)	MDA-MB-435	inactive
COc1cc2c(cc1OCCCN1CCN(C)CC1)N=C[C@@H]1CCCN1C2=O	MDA-MB-435	inactive
C=CC(O)(CBr)CCC(Br)C(C)(C)Cl (stereo not drawn)	MDA-MB-435	inactive
CCOC(=O)/C=C(\C(=O)OCC)n1cc(C)c(=O)n(Cc2cnnn2COCCOC(C)=O)c1=O	MDA-MB-435	inactive
CC(=O)N1N=C(c2ccc3ccccc3c2O)CC1c1cccs1 (stereo not drawn)	MDA-MB-435	inactive
Cc1ccc(S(=O)(=O)OC2CN3CCC2CC3)cc1 (stereo not drawn)	MDA-MB-435	inactive
CSc1c(C#N)c(S)[nH]c(=O)c1C#N	MDA-MB-435	inactive
Nc1ccc(C(=O)CC(N)C(=O)O)cc1O (stereo not drawn)	MDA-MB-435	inactive
CC(CCC(=O)O)[C@H]1CCC2[C@H]3C(CC(=O)[C@@]21C)[C@@]1(C)CCC(O)C[C@H]1C[C@@H]3O (stereo partly drawn)	MDA-MB-435	inactive
Fc1ccc(/C=C2\COCC3=C2NC(=S)NC3c2ccc(F)cc2)cc1 (stereo not drawn)	MDA-MB-435	inactive
O=[N+]([O-])c1ccc(-n2nc3ccc4c(no[n+]4[O-])c3[n+]2[O-])c([N+](=O)[O-])c1	MDA-MB-435	inactive
COc1ccc(/C=C/c2ccnc3ccccc23)cc1	MDA-MB-435	inactive
CCOC(=O)c1cnc2oc(/C=N/N3CC(CN4CCOCC4)OC3=O)cc2c1O (stereo not drawn)	MDA-MB-435	inactive
Brc1c(C#CCC2CCCCC2)ccc(C#CCC2CCCCC2)c1Br	MDA-MB-435	inactive
COC(=O)C1C=CN(N(C)C)C2=C1C(=O)c1c(O)cccc1C2=O (stereo not drawn)	MDA-MB-435	active
COc1cc(C(O)c2ccc3c(c2)OCO3)cc(OC)c1OC (stereo not drawn)	MDA-MB-435	inactive
CSc1nc(NC2OCC(OC(C)=O)C(OC(C)=O)C2OC(C)=O)c(/N=C\C=N\c2c(NC3OCC(OC(C)=O)C(OC(C)=O)C3OC(C)=O)nc(SC)[nH]c2=O)c(=O)[nH]1 (stereo not drawn)	MDA-MB-435	inactive
CN(C)c1ccc(C(C#N)N2CCCN(C(C#N)c3ccc(N(C)C)cc3)C2c2ccc(N(C)C)cc2)cc1 (stereo not drawn)	MDA-MB-435	inactive
CCOC(=O)c1nc2cc(C(F)(F)F)ccc2nc1Nc1cc(OC)c(OC)c(OC)c1	MDA-MB-435	inactive
CN(CC(=O)O)c1ncc2c(n1)-c1ccccc1OC2	MDA-MB-435	inactive
CCc1n[nH]c(=O)n1NC(=O)/C=C\C(=O)O	MDA-MB-435	inactive
O=C1C=CC(=O)C1(Br)Br	MDA-MB-435	inactive
CC(C)(Br)C(Br)CCC1(C(Br)CBr)CO1 (stereo not drawn)	MDA-MB-435	inactive
